Measured ELISA luminescence signal at 10 nmol/L peptide, relative to SEQ ID NO: 47 (=1), listed per entry for reference.
- tested_target: T1, Recombinant Human FGFR2 alpha (IIIc) Fc Chimera Protein, CF (R&D systems, 712-FR-050) (human, UniProt P21802 22-377)
- T1 construct: bought; not shown: Fc part of the chimera
- T1 sequence (P21802 22-377, change not shown): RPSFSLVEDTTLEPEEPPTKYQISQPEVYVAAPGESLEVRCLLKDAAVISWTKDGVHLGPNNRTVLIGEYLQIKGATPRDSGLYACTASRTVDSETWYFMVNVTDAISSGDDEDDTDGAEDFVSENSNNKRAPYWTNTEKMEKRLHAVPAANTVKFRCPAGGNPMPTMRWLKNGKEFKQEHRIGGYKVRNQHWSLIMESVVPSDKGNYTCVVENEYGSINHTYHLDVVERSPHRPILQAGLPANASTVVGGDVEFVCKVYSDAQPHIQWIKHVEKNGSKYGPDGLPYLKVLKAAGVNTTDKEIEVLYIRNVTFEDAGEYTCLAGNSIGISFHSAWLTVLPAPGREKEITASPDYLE
- measurement_protocol: ELISA on plate-bound FGFR2-Fc
Bridge positions count the residues as written; N and C are the ends. Ends that are not written are not given here. COCH2 = acetyl group that carries the bridge
assay_endpoint: ELISA luminescence signal at 10 nmol/L peptide, relative to SEQ ID NO: 47 (=1)

>>> measured_value("YCEENYLDPEQYQYFIYFK(COCH2)Y (thioether 2-19) [cyclic peptide SEQ ID NO: 131]")
"≥ 0.7 ratio"
>>> measured_value("YCEENDLDPEQYQYFIYFK(COCH2)Y (thioether 2-19 (inferred)) [cyclic peptide SEQ ID NO: 192]")
"0.1 to 0.5 ratio"
>>> measured_value("QCPQHFINPVQWRYFQHYK(COCH2)N (thioether 2-19) [cyclic peptide SEQ ID NO: 100]")
"0.1 to 0.5 ratio"
>>> measured_value("ACRRANWIHPIQWFFFHVYK(COCH2)H (thioether 2-20) [cyclic peptide SEQ ID NO: 403]")
"0.5 to 0.7 ratio"
>>> measured_value("YCEENYLDPEQYQYFMYFK(COCH2)Y (thioether 2-19) [cyclic peptide SEQ ID NO: 358]")
"≥ 0.7 ratio"
>>> measured_value("QCPRQLYYLYLYLSK(COCH2)I (thioether 2-15) [cyclic peptide SEQ ID NO: 378]")
"0.1 to 0.5 ratio"
>>> measured_value("VCTQPQQDFELIYQYLYQLAK(COCH2)Q (thioether 2-21 (inferred)) [cyclic peptide SEQ ID NO: 424]")
"0.1 to 0.5 ratio"
>>> measured_value("YCEENYQDPEQYQYFIYFK(COCH2)Y (thioether 2-19 (inferred)) [cyclic peptide SEQ ID NO: 201]")
"≥ 0.7 ratio"
>>> measured_value("QCAYYHLYQYLHQLK(COCH2)V (thioether 2-15) [cyclic peptide SEQ ID NO: 385]")
"0.5 to 0.7 ratio"
>>> measured_value("YCEENYLDPEQYNYFIYFK(COCH2)Y (thioether 2-19 (inferred)) [cyclic peptide SEQ ID NO: 264]")
"≥ 0.7 ratio"
>>> measured_value("TCEENYLDPEQYQYFIYFK(COCH2)Y (thioether 2-19) [cyclic peptide SEQ ID NO: 146]")
"≥ 0.7 ratio"
>>> measured_value("YCEEWYLDPEQYQYFIYFK(COCH2)Y (thioether 2-19 (inferred)) [cyclic peptide SEQ ID NO: 182]")
"0.1 to 0.5 ratio"
>>> measured_value("YCEENYLDPEQYQYFIDFK(COCH2)Y (thioether 2-19 (inferred)) [cyclic peptide SEQ ID NO: 302]")
"≥ 0.7 ratio"
>>> measured_value("DCLQFLYLYLYQK(COCH2)T (thioether 2-13) [cyclic peptide SEQ ID NO: 369]")
"0.1 to 0.5 ratio"
>>> measured_value("QCPQYFINPVQWRYFQHYK(COCH2)N (thioether 2-19) [cyclic peptide SEQ ID NO: 96]")
"0.1 to 0.5 ratio"
>>> measured_value("DCPQNFINPVQWRYFQHYK(COCH2)N (thioether 2-19 (inferred)) [cyclic peptide SEQ ID NO: 83]")
"≥ 0.7 ratio"
>>> measured_value("YCYENYLDPEQYQYFIYFK(COCH2)Y (thioether 2-19) [cyclic peptide SEQ ID NO: 157]")
"≥ 0.7 ratio"
>>> measured_value("YCEENYLDPGQYQYFIYFK(COCH2)Y (thioether 2-19 (inferred)) [cyclic peptide SEQ ID NO: 236]")
"0.1 to 0.5 ratio"
>>> measured_value("YCHENYLDPEQYQYFIYFK(COCH2)Y (thioether 2-19) [cyclic peptide SEQ ID NO: 165]")
"≥ 0.7 ratio"
>>> measured_value("TCPQNFRDELQFTYFTQYK(COCH2)Y (thioether 2-19 (inferred)) [cyclic peptide SEQ ID NO: 45]")
"≥ 0.7 ratio"
>>> measured_value("YCEESYLDPEQYQYFIYFK(COCH2)Y (thioether 2-19 (inferred)) [cyclic peptide SEQ ID NO: 184]")
"0.1 to 0.5 ratio"
>>> measured_value("YCEENYLDPEQYSYFIYFK(COCH2)Y (thioether 2-19 (inferred)) [cyclic peptide SEQ ID NO: 265]")
"≥ 0.7 ratio"
>>> measured_value("YCEENYLDPEQYQYFIYWK(COCH2)Y (thioether 2-19 (inferred)) [cyclic peptide SEQ ID NO: 307]")
"≥ 0.7 ratio"
